Reported Anti-CD28 Fab signal values are given for each entry in this list.
# measurementTarget: Anti-CD28 Fab (SEQ ID NOs: 696, 697)
# Sequence (VH, as listed by the source, chain 1 of 2): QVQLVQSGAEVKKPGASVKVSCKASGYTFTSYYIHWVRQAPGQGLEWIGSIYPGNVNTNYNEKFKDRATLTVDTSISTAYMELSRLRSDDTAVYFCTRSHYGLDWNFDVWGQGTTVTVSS
# Sequence (VL, as listed by the source, chain 2 of 2): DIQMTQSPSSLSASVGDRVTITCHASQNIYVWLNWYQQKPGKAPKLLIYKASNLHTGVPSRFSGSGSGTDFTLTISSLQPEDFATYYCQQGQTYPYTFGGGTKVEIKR
# methodNotes: phage binding ELISA; biotinylated Fab on neutravidin plate, bound phage detected with anti-M13-HRP

binder: SCAAGATYGWPECF [Phage-1597]
Anti-CD28 Fab signal: 1.36

binder: TCSAGALWEWPMCF [Phage-1603]
Anti-CD28 Fab signal: 1.35

binder: TCSAGAHWVWPYCL [Phage-1596]
Anti-CD28 Fab signal: 1.37

binder: LCSAGAMWEWPLCL [Phage-1599]
Anti-CD28 Fab signal: 1.36

binder: TCSAGANWVWPLCL [Phage-1595]
Anti-CD28 Fab signal: 1.38

binder: TCSAGAAWTWPLCF [Phage-1601]
Anti-CD28 Fab signal: 1.36
